assay: Pharmacokinetic study in rats (LC-MS/MS); assay type: in vivo, Sprague–Dawley (SD) rats; conditions: male, Sprague-Dawley, plasma, iv; rat, i.v. 5 mg/kg
METRIC_NAME: Cmax (ng/mL)
// units = ng/mL; emit number, no label

Cmax for O=C(O)C[C@@H]1C(=O)O[C@H]2[C@@H]3OC(=O)c4cc(O)c(O)c(O)c4-c4c(cc(O)c(O)c4O)C(=O)OC[C@H]2O[C@@H](OC(=O)c2cc(O)c(O)c(O)c2)[C@@H]3OC(=O)c2cc(O)c(O)c3c2[C@H]1[C@H](O)C(=O)O3 is 4160

----------
assay: Pharmacokinetic study in rats (LC-MS/MS); type: in vivo, Sprague–Dawley (SD) rats; conditions: male, Sprague-Dawley, plasma, po; rat, i.g. 10 mg/kg
METRIC_NAME: Tmax
Reply with the number, then its unit.

Tmax for O=C(O)C[C@@H]1C(=O)O[C@H]2[C@@H]3OC(=O)c4cc(O)c(O)c(O)c4-c4c(cc(O)c(O)c4O)C(=O)OC[C@H]2O[C@@H](OC(=O)c2cc(O)c(O)c(O)c2)[C@@H]3OC(=O)c2cc(O)c(O)c3c2[C@H]1[C@H](O)C(=O)O3 [CHLA, chebulagic acid] is 2 h
